Cited source: ChEMBL document CHEMBL3797058

Tested on: Bacillus subtilis
Experiment: Antimicrobial activity against Bacillus subtilis DSM 10 by serial dilution method
Assay type: functional
The source made the active and inactive calls. The calls are words filed in the database; no cut-off is given here.

{"Molecule": "Cc1c(O)c(-c2c(O)c(C)c(C)c3[nH]c4ccccc4c23)c2c([nH]c3ccccc32)c1C", "MIC": "16.6 µg/mL"}
{"Molecule": "Cc1c(O)cc2c([nH]c3ccccc32)c1C", "MIC": "16.6 µg/mL"}
{"Molecule": "C[C@@]1(O)C(=O)Cc2c([nH]c3ccccc23)[C@@]1(C)O", "MIC": "inactive"}
{"Molecule": "C=C1c2[nH]c3ccccc3c2C[C@@H](O)[C@@]1(C)O", "MIC": "inactive"}
{"Molecule": "CO[C@]1(C)c2[nH]c3ccccc3c2C(=O)C(=O)[C@@]1(C)O", "MIC": "8.3 µg/mL"}
{"Molecule": "C[C@@]1(O)C(=O)[C@H]([C@H]2C(=O)[C@@](C)(O)[C@](C)(O)c3[nH]c4ccccc4c32)c2c([nH]c3ccccc23)[C@@]1(C)O", "MIC": "inactive"}
{"Molecule": "Cc1ccc2c([nH]c3ccccc32)c1C=O", "MIC": "inactive"}
{"Molecule": "C[C@@]1(O)C(=O)C(=O)c2c([nH]c3ccccc23)[C@@]1(C)O", "MIC": "inactive"}
{"Molecule": "CO[C@]1(C)c2[nH]c3ccccc3c2CC(=O)[C@@]1(C)O", "MIC": "inactive"}

* * *

System: Mucor hiemalis
Assay: Antimicrobial activity against Mucor hiemalis DSM 2656 by serial dilution method
Format: functional
The source made the active and inactive calls. The calls are words filed in the database; no cut-off is given here.
Measured Attribute: MIC

{"Molecule": "Cc1c(O)c(-c2c(O)c(C)c(C)c3[nH]c4ccccc4c23)c2c([nH]c3ccccc32)c1C", "Target Of Assay": "Mucor hiemalis", "Data Value": "67 µg/mL"}
{"Molecule": "Cc1ccc2c([nH]c3ccccc32)c1C=O", "Target Of Assay": "Mucor hiemalis", "Data Value": "inactive"}
{"Molecule": "Cc1c(O)cc2c([nH]c3ccccc32)c1C", "Target Of Assay": "Mucor hiemalis", "Data Value": "inactive"}
